assay: Pharmacokinetic study GW01-0706 under maximal use conditions (serum imiquimod); assay type: in vivo, human; conditions: human, topical, Steady-State (Day 21), 3.75% imiquimod cream 2 packets daily, read-out: AUC0-24, Geometric Mean
outcome measure: AUC(0-t) (ng·h/mL)
# output: bare number, implied unit ng·h/mL

Query: Name the recorded AUC(0-t) for CC(C)Cn1cnc2c(N)nc3ccccc3c21 [imiquimod] .
Result: 5.03

---

assay: Pharmacokinetic study GW01-0706 under maximal use conditions (serum imiquimod); assay type: in vivo, human; details: human, topical
outcome measure: concentration at 22 day (trough) (ng/mL)
# output: bare number, implied unit ng/mL

Query: Name the recorded concentration at 22 day (trough) for CC(C)Cn1cnc2c(N)nc3ccccc3c21 .
Result: 0.167

---

assay: Pharmacokinetic study GW01-0706 under maximal use conditions (serum imiquimod); type: in vivo, human; settings: human, topical
outcome measure: concentration at 21 day (trough)
Kindly write the number and append the unit.

Query: Name the recorded concentration at 21 day (trough) for CC(C)Cn1cnc2c(N)nc3ccccc3c21 .
Result: 0.179 ng/mL

---

assay: Pharmacokinetic study GW01-0706 under maximal use conditions (serum imiquimod); type: in vivo, human; details: human, topical
outcome measure: concentration at 14 day (trough) (ng/mL)
# output: bare number, implied unit ng/mL

Query: Name the recorded concentration at 14 day (trough) for CC(C)Cn1cnc2c(N)nc3ccccc3c21 .
Result: 0.139

---

experiment: Pharmacokinetic study GW01-0706 under maximal use conditions (serum imiquimod); type: in vivo, human; details: human, topical, Steady-State (Day 21), 3.75% imiquimod cream 2 packets daily, read-out: AUC0-24, Mean
outcome measure: AUC(0-t) (ng·h/mL)
# output: bare number, implied unit ng·h/mL

Query: Name the recorded AUC(0-t) for CC(C)Cn1cnc2c(N)nc3ccccc3c21 .
Result: 5.97

---

assay: Pharmacokinetic study GW01-0706 under maximal use conditions (serum imiquimod); assay type: in vivo, human; conditions: human, topical, Steady-State (Day 21), 3.75% imiquimod cream 2 packets daily, read-out: Cmax, Geometric Mean
outcome measure: Cmax (ng/mL)
# output: bare number, implied unit ng/mL

Query: Name the recorded Cmax for CC(C)Cn1cnc2c(N)nc3ccccc3c21 .
Result: 0.274

---

test: Pharmacokinetic study GW01-0706 under maximal use conditions (serum imiquimod); type: in vivo, human; settings: human, topical, Steady-State (Day 21), 3.75% imiquimod cream 2 packets daily, read-out: Cmax, Mean
outcome measure: Cmax (ng/mL)
# output: bare number, implied unit ng/mL

Query: Name the recorded Cmax for CC(C)Cn1cnc2c(N)nc3ccccc3c21 [imiquimod] .
Result: 0.323
